Test system: M14 melanoma
Experimental details: NCI tumour cell line growth inhibition, 48 h
Where a SMILES comes first, the peptide text is derived from it. The star is where a group is joined. Trt = c1ccc(C(c2ccccc2)(c2ccccc2)*)cc1; Cbz = O=C(OCc1ccccc1)*
Listing of entries alongside the reported GI50.

Example cases with answers are listed next.
[[record]]
compound = "COC(=O)C(CSC(c1ccccc1)(c1ccccc1)c1ccccc1)NC(=O)C(CC(N)=O)NC(=O)OCc1ccccc1 (stereo not drawn) (Cbz-Asn-Cys(Trt)-OMe; configuration not given here)"
result = "1680 nM"

[[record]]
compound = "O=C(Nc1nc2ccccc2s1)c1cc(-c2ccc(F)cc2)n2nc(-c3ccccc3)cc2n1"
result = "3130 nM"


Now for another entry.
Q) So what does the record say about GI50 for COc1ccc(-c2n/c(=C\c3c(O)[nH]c4ccccc34)cc3c2=Nc2ccccc2-3)cc1 ?
A) 1150 nM
